For RNA-directed RNA polymerase (Hepacivirus hominis), measured pIC50 is reported for the entries below.
When answering, recall that pIC50 equals minus log10 of the concentration in mol/L, and write that number alone.

{"molecule": "O=C(O)[C@@H]1CCCN1S(=O)(=O)c1cc(Cl)cc(Cl)c1O", "pIC50": 6.11}

Given O=C(O)[C@@H]1CCCCN1S(=O)(=O)c1cc(Cl)cc(Cl)c1O , state its recorded pIC50.
5.70

====

target: Human immunodeficiency virus type 1 reverse transcriptase (Human immunodeficiency virus 1)
recordedEndpoint: IC50

For the record Cc1cc(S(=O)(=O)N2CCC[C@H]2C(=O)O)c(N)cc1Cl , what value of IC50 is listed for Human immunodeficiency virus type 1 reverse transcriptase (Human immunodeficiency virus 1)?
> 100 µM
